Listed here are compounds together with their documented differential viability (reversal).
Test: MRP1 drug-resistance reversers in H69AR cells – cell-based, doxorubicin co-treatment, pilot screen (AID 601)
Details: H69AR cells + 2 uM doxorubicin, CellTiter-Glo, 72 h; at 10 µM; active compounds read high
measurement.name: differential viability (reversal) (%)

>>> reading("CSc1cccc(NC(=O)C2CCN(S(=O)(=O)c3ccc(F)cc3)CC2)c1")
-0.92
>>> reading("CCOC(=O)c1cc2c(=O)n3ccccc3nc2n(Cc2ccccc2)c1=N")
-4.5
>>> reading("Cc1cc(C)nc(NC(=O)c2cnc3sccn3c2=O)n1")
-8.39
>>> reading("CN1CCN(CC(=O)N2c3ccccc3C(C)(c3ccccc3)CC2(C)C)CC1 (configuration not stated)")
-31.3
>>> reading("CCOC(=O)Nc1c(O)ccc2oc(C)c(-c3ccccc3)c12")
0.02
>>> reading("COc1ccc(N(C)C(=O)CCS(=O)(=O)c2cccc3nonc23)c(OC)c1")
9.71
>>> reading("CCN1CCCC1CNC(=O)c1cc2c(=O)n(C)c3ccccc3c2n1C (configuration not stated)")
7.05
>>> reading("CS(=O)(=O)N(Cc1ccco1)CC(O)Cn1c2ccccc2c2ccccc21 (configuration not stated)")
-2.92
>>> reading("CC(=O)Nc1nc(-c2ccccc2)nc(C)c1C(C)=O")
7.1
>>> reading("Cc1cc(NC(=O)CSc2nc3c(c(-c4cccnc4)c2C#N)CCC3)no1")
6.63
>>> reading("Cc1ccccc1-c1nc(CN2CCC(C(=O)NC3CCN(Cc4ccccc4)CC3)CC2)c(C)o1")
7.26
>>> reading("Cc1ccc(-n2ncc3c(N4CCCC(C)C4)ncnc32)c(C)c1 (configuration not stated)")
38.2
>>> reading("COc1ccc(S(=O)(=O)N2CCN(c3ccc(C)cc3C)CC2)cc1OC")
-0.96
>>> reading("O=C(CS(=O)(=O)Cc1ccccc1)Nc1nc2ccccc2s1")
-3.83
>>> reading("CCCSc1nc2c(cnn2-c2ccc(C)cc2)c(=O)[nH]1")
-3.51
>>> reading("O=C(CSc1nc(-c2ccco2)cc(C(F)(F)F)n1)NCCCn1ccnc1")
-4.19
>>> reading("O=c1[nH]c(SCc2ccc(F)cc2)nc2c1cnn2-c1ccc(F)cc1")
38.2
>>> reading("CCCn1c(NCc2cc(C)ccc2O)nc2ccccc21")
1.94
>>> reading("CC(CC(=O)NC1CCSC1=O)c1ccccc1 (configuration not stated)")
1.77
>>> reading("COc1ccc(-n2ncc3c(N4CCN(c5cccc(C)c5C)CC4)ncnc32)cc1")
5.39
>>> reading("CCOC(=O)c1ccc(N2Cc3cc(C)c(C)cc3C2)cc1O")
4.4
>>> reading("COc1cc(/C=N/n2cnnc2)ccc1OCC(=O)N1CCOCC1")
-6.64
>>> reading("Cc1occc1C(=O)N1CCN(Cc2ccccc2)CC1")
3.23
>>> reading("CCc1ccc(N2CC34C=CC(O3)C(C(=O)OC)C4C2=O)cc1 (configuration not stated)")
12
>>> reading("O=C(Nc1c(C(=O)NCc2ccco2)cnn1-c1ccccc1)c1ccc(F)cc1")
4.25
>>> reading("CCn1cc(C(=O)N2CCOCC2)c(=O)c2cc(S(=O)(=O)N(C)C3CCCCC3)ccc21")
19.7
>>> reading("COc1ccc(-n2ncc3c(N4CCC(C)CC4)ncnc32)cc1")
35.3
>>> reading("Cc1ccc(-c2cc3nc4c(c(=O)n3[nH]2)CCCC4)cc1")
-1.42
>>> reading("Cc1c(C#N)c2ncnc(-c3ccccc3)c2n1-c1ccccc1")
52.5
>>> reading("Cc1ccc(-c2noc(COc3ccccc3C)n2)cc1")
10.6
>>> reading("Cc1ccc(C(C)C)c(OCCCN2CC(C)OC(C)C2)c1 (configuration not stated)")
-9.6
>>> reading("CN(C)CCCNC(=O)CCC1CCCCC1")
9.09
>>> reading("N#CCCN1CCN(S(=O)(=O)c2ccc(S(=O)(=O)NC3CCCCC3)cc2)CC1")
12.5
>>> reading("Cc1ccc2c(c1)C1CCCC3C1N2CC(=O)N3Cc1ccccc1 (configuration not stated)")
-5.75
>>> reading("CC(=O)NC(C)c1nc2ccccc2n1C(C)C (configuration not stated)")
12.4
>>> reading("CCN(CC)CCn1c(=N)n(CCO)c2ccccc21")
8.55
>>> reading("COc1ccc(-c2nnc(SCC(=O)NC(C)c3ccccc3)o2)cc1 (configuration not stated)")
5.95
>>> reading("O=C(CN1CCN(Cc2ccccc2)CC1)NCC1COc2ccccc2O1 (configuration not stated)")
6.56
>>> reading("Cn1cc(Cl)c(C(=O)NC2CCCC2)n1")
14.1
>>> reading("O=C1CCCC2=C1C(c1cccc(Br)c1)n1nc(-c3ccco3)nc1N2 (configuration not stated)")
2.4
>>> reading("O=C(Nc1ccc(CN2CCOCC2)cc1)c1cc2ccccn2n1")
-0.47
>>> reading("O=S(=O)(c1ccc(F)cc1)N1CCC(N2CCCC2)CC1")
10.3
>>> reading("COc1ccc(CCNC(=O)CSc2nnnn2-c2ccccc2OC)cc1OC")
0.99
>>> reading("CCCS(=O)(=O)N1CCN(C(=O)c2cccnc2)CC1")
5.65
>>> reading("C=CCc1ccccc1OCCCCN1CCCC1")
-1.74
>>> reading("COc1ccc(CNC(=O)c2nnn(Cc3ccc(OC)cc3)c2N)cc1")
-1.82
>>> reading("N#Cc1c2n(c(=O)[nH]c1=O)CCCCC2")
3.5

Data provenance: PubChem BioAssay
